# procedure_summary: Pharmacokinetics in rat plasma after intragastric administration, normoxia (UPLC-MS/MS)
# Type: in vivo, Sprague-Dawley rats
# condition_notes: male, Sprague-Dawley, rat, plasma, po, 80 mg/kg, PF (80 mg/kg) combined with AF (14 mg/kg), intragastric, mean ± SD, n = 6, read-out: AUC(0→24 h) (converted)
quantity: AUC(0-t) (ng·h/mL)
Give your result in ng·h/mL as a bare value.

Measured AUC(0-t) of C[C@@]12C[C@@]3(O)O[C@@H](O1)[C@]1(COC(=O)c4ccccc4)[C@H]3C[C@@]12O[C@@H]1O[C@H](CO)[C@@H](O)[C@H](O)[C@H]1O : 865
